Taken from patent US20050064507A1.

Target: PKC-epsilon (Homo sapiens)
Construct: purchased Calbiochem
Sequence (Q02156 1-737): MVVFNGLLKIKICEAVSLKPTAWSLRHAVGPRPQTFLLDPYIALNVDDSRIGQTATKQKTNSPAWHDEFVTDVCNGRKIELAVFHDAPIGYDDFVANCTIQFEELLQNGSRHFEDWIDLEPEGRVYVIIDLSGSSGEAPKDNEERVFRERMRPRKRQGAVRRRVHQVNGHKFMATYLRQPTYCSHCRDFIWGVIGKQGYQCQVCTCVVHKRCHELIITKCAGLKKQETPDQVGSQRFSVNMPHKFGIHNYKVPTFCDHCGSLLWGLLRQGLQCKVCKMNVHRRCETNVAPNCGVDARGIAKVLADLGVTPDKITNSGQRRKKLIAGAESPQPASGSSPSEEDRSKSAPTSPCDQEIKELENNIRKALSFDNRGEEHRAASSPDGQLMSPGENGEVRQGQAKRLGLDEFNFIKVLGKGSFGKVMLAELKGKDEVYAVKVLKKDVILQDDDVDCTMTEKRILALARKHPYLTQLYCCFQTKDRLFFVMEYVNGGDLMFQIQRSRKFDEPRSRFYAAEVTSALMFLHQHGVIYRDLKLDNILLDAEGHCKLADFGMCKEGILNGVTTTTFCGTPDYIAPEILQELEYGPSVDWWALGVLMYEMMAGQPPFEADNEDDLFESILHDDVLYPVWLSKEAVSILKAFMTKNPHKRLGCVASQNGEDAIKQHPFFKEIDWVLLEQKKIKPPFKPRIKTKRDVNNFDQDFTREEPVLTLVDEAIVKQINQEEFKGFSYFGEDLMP
Assay: In vitro kinase assay: peptide phosphorylation by PKC-epsilon
Assay type: biochemical
Conditions: normalized to best substrate
Measurement label: PKC-epsilon phosphorylation (%)
Numbers only; they are read as %.

99 (AGWRKKTSFRKPKED) [compound 99]	27
91 (VHYTSKDTLRKRHYWR) [compound 91]	49
92 (DGQKRKKSLRKKLD) [compound 92]	51
76 (HVRRRRGTFKRSKLRARD) [compound 76]	100
88 (KKPFKLSGLSFKRNRKE) [compound 88]	44
93 (AARKKRISVKKKQEQ) [compound 93]	40
96 (RGFLRSASLGRRASFHLE) [compound 96]	41
97 (KKRSSKKEASMKKVVRP) [compound 97]	16
82 (PRLIRRGSKKRPAR) [compound 82]	72
94 (KLAVGRHSFSRRSGV) [compound 94]	13

Exam item: Tell me its PKC-epsilon phosphorylation given 113 (GENVLKKSMKSRVKG) [compound 113] as the entry.
Marked response: 10

Exam item: Tell me its PKC-epsilon phosphorylation given 85 (RFARKGSLRQKNV) [compound 85] as the entry.
Marked response: 86
